Assay: Single-dose PK and food effect in beagle dogs (IV/PO)
Set-up: species or system beagle dog
Settings: both sexes, beagle, dog, in vivo, po, 25 mg/kg
Method: Twelve beagle dogs (6-10 kg, male: female = 1:1) purchased from Beijing Marshall Biotechnology Co. Ltd. (Beijing, China) were enrolled in a three-period self-control cross-over study with a washout time of 1 week. […] In Period 1 and Period 2, dogs were fasted overnight until dosing. […] Approximately 1.0 mL of blood was collected per time point from the jugular vein using a 2 mL injector and transferred to a 3 mL tube that contained sodium heparin. […]
MEASURE: AUC(0-t) (ng·h/mL)
Hi! Could you send only the number? It should be in ng·h/mL, unit omitted.

input: What value of measured AUC(0-t) is listed for C[C@H](Nc1ncnc(N)c1C#N)c1cc2ncc(Cl)n2nc1-c1ccccc1 ?
output: 66500

* * *

test: Single-dose PK in cynomolgus monkeys (IV/PO); type: in vivo, cynomolgus monkey; conditions: both sexes, cynomolgus monkey, in vivo, po, 5 mg/kg
MEASURE: half-life (h)
Hi! Could you send only the number? It should be in h, unit omitted.

input: What value of measured half-life is listed for C[C@H](Nc1ncnc(N)c1C#N)c1cc2ncc(Cl)n2nc1-c1ccccc1 [Amdizalisib] ?
output: 3.1

* * *

experiment: Caco-2 bidirectional transport permeability; format: in vitro ADME, human; details: human
MEASURE: Papp A→B at 120 min, 10 µM (nm/s)
Hi! Could you send only the number? It should be in nm/s, unit omitted.

input: What value of measured Papp A→B at 120 min, 10 µM is listed for C[C@H](Nc1ncnc(N)c1C#N)c1cc2ncc(Cl)n2nc1-c1ccccc1 [Amdizalisib] ?
output: 369

* * *

molecular target: CYP2C19 (Homo sapiens, UniProt P33261)
Sequence (P33261 whole entry): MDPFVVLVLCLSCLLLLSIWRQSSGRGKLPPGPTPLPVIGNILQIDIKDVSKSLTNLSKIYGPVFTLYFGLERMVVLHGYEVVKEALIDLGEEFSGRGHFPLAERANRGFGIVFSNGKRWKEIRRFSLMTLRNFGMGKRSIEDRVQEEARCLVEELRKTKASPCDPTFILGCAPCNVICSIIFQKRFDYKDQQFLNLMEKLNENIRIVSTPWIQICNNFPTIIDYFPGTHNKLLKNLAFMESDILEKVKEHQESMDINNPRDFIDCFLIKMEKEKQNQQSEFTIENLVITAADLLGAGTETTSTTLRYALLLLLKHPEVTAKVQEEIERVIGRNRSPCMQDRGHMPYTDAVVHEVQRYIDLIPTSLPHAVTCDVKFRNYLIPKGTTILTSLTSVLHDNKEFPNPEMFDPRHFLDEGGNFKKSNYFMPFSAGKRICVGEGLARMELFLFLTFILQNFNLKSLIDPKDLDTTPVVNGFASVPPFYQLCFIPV
MEASURE: IC50

input: For CYP2C19 (Homo sapiens, UniProt P33261), provide IC50 of C[C@H](Nc1ncnc(N)c1C#N)c1cc2ncc(Cl)n2nc1-c1ccccc1 [Amdizalisib] please.
output: > 50 µM

* * *

assay: Single-dose PK and food effect in beagle dogs (IV/PO); parameters: species or system beagle dog; conditions: both sexes, beagle, dog, in vivo, po, 0.5 mg/kg, Cmax
MEASURE: Cmax (ng/mL)
Hi! Could you send only the number? It should be in ng/mL, unit omitted.

input: What value of measured Cmax is listed for C[C@H](Nc1ncnc(N)c1C#N)c1cc2ncc(Cl)n2nc1-c1ccccc1 ?
output: 42.4

* * *

Test: Caco-2 bidirectional transport permeability
Format: in vitro ADME, human
Settings: human
Method: The passage number of cells used in this study was 39. Non-specific binding to the device surfaces and the aqueous solubility of test compounds were tested before the transport experiment. […] The integrity of the monolayer was estimated by measuring transepithelial electrical resistance (TEER). Only the monolayers with TEER over 150 Ω were used for the studies.
MEASURE: Papp B→A at 30 min, 10 µM
Give your result as the value with the unit written after it.

input: What value of measured Papp B→A at 30 min, 10 µM is listed for C[C@H](Nc1ncnc(N)c1C#N)c1cc2ncc(Cl)n2nc1-c1ccccc1 [Amdizalisib] ?
output: 69.5 ×10⁻⁶ cm/s

* * *

assay: Plasma protein binding (RED), human plasma; type: in vitro ADME; details: mouse, rat, dog, monkey, human, plasma, pH 7.4; all species, all cases (data not shown); read-out: post-dialysis recovery
MEASURE: recovery at 6 h

input: What value of measured recovery at 6 h is listed for C[C@H](Nc1ncnc(N)c1C#N)c1cc2ncc(Cl)n2nc1-c1ccccc1 [Amdizalisib] ?
output: > 90%

* * *

assay: Single-dose PK in SD rats (IV/PO); set-up: species or system SD rat; conditions: both sexes, SD, rat, in vivo, po, 1 mg/kg
MEASURE: MRT
Give your result as the value with the unit written after it.

input: What value of measured MRT is listed for C[C@H](Nc1ncnc(N)c1C#N)c1cc2ncc(Cl)n2nc1-c1ccccc1 ?
output: 7.9 h

* * *

system: CYP2C8 mRNA; test: in vitro; conditions: female, human, Gene expression Fold Induction
MEASURE: fold induction at 48 h, 25 µM
Give your answer as a number; write no unit.

input: What value of measured fold induction at 48 h, 25 µM is listed for CCOC(=O)c1ncn2c1CN(C)C(=O)c1cc(F)ccc1-2 [Flumazenil] ?
output: 1.89

* * *

Target: MATE1 (Homo sapiens, UniProt Q96FL8)
Sequence (Q96FL8 1-570): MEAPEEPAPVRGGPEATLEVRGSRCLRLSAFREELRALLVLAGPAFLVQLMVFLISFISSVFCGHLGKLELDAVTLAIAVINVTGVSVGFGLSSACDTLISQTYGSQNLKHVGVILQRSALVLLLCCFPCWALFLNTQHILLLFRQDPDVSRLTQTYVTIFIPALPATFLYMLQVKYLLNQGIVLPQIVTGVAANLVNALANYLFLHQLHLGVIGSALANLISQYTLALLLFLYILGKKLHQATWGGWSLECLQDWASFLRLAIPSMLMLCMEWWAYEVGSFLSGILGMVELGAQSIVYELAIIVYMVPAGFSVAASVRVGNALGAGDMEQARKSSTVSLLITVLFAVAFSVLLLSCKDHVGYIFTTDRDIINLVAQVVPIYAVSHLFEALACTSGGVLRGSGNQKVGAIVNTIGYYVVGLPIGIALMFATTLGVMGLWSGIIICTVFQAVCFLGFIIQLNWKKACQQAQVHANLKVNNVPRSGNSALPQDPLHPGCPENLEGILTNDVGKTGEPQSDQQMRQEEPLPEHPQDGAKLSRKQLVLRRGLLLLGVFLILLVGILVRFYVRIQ
Assay: in vitro
Conditions: human, pH 8
MEASURE: inhibition at 2 min, 1 µM (%)
Hi! Could you send only the number? It should be in %, unit omitted.

C[C@H](Nc1ncnc(N)c1C#N)c1cc2ncc(Cl)n2nc1-c1ccccc1 [Amdizalisib] :: 13.9

Now consider the entry below.
input: What value of measured inhibition at 2 min, 1 µM is listed for CCc1nc(N)nc(N)c1-c1ccc(Cl)cc1 [Pyrimethamine, reference compound] ?
output: 100

* * *

assay: Single-dose PK in cynomolgus monkeys (IV/PO); assay type: in vivo, cynomolgus monkey; details: both sexes, cynomolgus monkey, in vivo, po, 5 mg/kg
MEASURE: Cmax (ng/mL)
Hi! Could you send only the number? It should be in ng/mL, unit omitted.

input: What value of measured Cmax is listed for C[C@H](Nc1ncnc(N)c1C#N)c1cc2ncc(Cl)n2nc1-c1ccccc1 [Amdizalisib] ?
output: 480

* * *

target: OATP1B1 (Homo sapiens, UniProt Q9Y6L6); assay: in vitro; conditions: human, pH 7.4
Sequence (Q9Y6L6 whole entry): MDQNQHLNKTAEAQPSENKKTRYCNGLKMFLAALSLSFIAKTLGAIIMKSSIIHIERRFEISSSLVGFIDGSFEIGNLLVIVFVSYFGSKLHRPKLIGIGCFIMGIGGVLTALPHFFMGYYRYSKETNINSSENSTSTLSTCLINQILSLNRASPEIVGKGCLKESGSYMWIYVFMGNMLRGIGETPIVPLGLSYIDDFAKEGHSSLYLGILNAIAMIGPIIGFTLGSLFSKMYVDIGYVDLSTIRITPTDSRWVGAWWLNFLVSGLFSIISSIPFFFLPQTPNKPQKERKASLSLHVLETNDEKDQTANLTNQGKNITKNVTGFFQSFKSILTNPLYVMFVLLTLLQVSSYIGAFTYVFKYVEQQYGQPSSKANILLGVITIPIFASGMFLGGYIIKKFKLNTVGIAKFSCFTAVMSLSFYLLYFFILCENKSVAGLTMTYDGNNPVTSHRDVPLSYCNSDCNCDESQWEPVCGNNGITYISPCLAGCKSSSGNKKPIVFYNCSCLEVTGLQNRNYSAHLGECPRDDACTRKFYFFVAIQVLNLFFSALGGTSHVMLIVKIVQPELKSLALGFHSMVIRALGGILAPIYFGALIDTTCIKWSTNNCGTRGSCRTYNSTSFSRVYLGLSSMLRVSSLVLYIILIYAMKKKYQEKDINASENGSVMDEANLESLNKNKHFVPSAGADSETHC
MEASURE: inhibition at 2 min, 0.3 µM (%)
Hi! Could you send only the number? It should be in %, unit omitted.

input: For OATP1B1 (Homo sapiens, UniProt Q9Y6L6), provide inhibition at 2 min, 0.3 µM of C[C@H](Nc1ncnc(N)c1C#N)c1cc2ncc(Cl)n2nc1-c1ccccc1 please.
output: -12.5

* * *

assay: Caco-2 bidirectional transport permeability; assay type: in vitro ADME, human; settings: human
MEASURE: Papp A→B at 90 min, 10 µM (×10⁻⁶ cm/s)
Hi! Could you send only the number? It should be in ×10⁻⁶ cm/s, unit omitted.

input: What value of measured Papp A→B at 90 min, 10 µM is listed for C[C@H](Nc1ncnc(N)c1C#N)c1cc2ncc(Cl)n2nc1-c1ccccc1 [Amdizalisib] ?
output: 38.9

* * *

experiment: Metabolic stability in monkey liver microsomes; assay type: in vitro ADME; settings: pH 7.4; female monkey liver microsomes, FMO deactivation; read-out: Predicted CL int, iv vivo
MEASURE: CLint scaled at 1 µM (mL/min/kg)
Hi! Could you send only the number? It should be in mL/min/kg, unit omitted.

input: What value of measured CLint scaled at 1 µM is listed for C[C@H](Nc1ncnc(N)c1C#N)c1cc2ncc(Cl)n2nc1-c1ccccc1 ?
output: 18.1

* * *

test: Single-dose PK in ICR mice (IV/PO); conditions: male, ICR, mouse, in vivo, iv, 2.5 mg/kg
MEASURE: Vd (L/kg)
Hi! Could you send only the number? It should be in L/kg, unit omitted.

input: What value of measured Vd is listed for C[C@H](Nc1ncnc(N)c1C#N)c1cc2ncc(Cl)n2nc1-c1ccccc1 ?
output: 1.87

* * *

target: CYP2C9 (Homo sapiens)
Sequence (P11712 whole entry): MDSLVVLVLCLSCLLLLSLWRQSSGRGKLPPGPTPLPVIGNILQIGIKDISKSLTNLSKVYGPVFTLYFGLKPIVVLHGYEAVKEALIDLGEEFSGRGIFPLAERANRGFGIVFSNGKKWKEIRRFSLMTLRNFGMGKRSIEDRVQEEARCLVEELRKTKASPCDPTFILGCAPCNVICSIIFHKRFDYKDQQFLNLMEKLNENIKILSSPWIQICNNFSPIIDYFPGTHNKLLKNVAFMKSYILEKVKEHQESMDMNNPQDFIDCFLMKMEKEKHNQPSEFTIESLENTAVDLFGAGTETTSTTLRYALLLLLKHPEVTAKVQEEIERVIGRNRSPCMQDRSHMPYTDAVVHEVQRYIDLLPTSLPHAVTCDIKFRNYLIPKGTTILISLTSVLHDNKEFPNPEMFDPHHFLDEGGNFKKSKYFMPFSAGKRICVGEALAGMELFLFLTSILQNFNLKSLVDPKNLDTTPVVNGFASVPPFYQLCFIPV
MEASURE: IC50 (µM)
Hi! Could you send only the number? It should be in µM, unit omitted.

input: For CYP2C9 (Homo sapiens), provide IC50 of C[C@H](Nc1ncnc(N)c1C#N)c1cc2ncc(Cl)n2nc1-c1ccccc1 please.
output: 10.7

* * *

test: Single-dose PK in cynomolgus monkeys (IV/PO); assay type: in vivo, cynomolgus monkey; conditions: both sexes, cynomolgus monkey, in vivo, iv, 1 mg/kg
MEASURE: MRT (h)
Hi! Could you send only the number? It should be in h, unit omitted.

input: What value of measured MRT is listed for C[C@H](Nc1ncnc(N)c1C#N)c1cc2ncc(Cl)n2nc1-c1ccccc1 ?
output: 2.2

Each recorded value in this set is attributed to paper PMC11211886.
